# study system: T1, human soluble IL-6R (human, UniProt P08887 20-357)
# T1 sequence: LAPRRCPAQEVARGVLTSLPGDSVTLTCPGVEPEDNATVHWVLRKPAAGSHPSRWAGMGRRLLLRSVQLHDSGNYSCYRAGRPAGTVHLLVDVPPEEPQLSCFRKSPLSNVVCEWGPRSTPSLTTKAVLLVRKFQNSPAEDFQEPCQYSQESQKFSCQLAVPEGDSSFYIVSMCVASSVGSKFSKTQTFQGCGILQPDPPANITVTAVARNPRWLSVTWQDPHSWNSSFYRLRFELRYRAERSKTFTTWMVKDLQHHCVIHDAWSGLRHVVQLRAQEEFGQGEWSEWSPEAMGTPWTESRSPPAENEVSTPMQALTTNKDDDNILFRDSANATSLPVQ
# assay overview: cell-based or functional assay
parameter: Classical:trans signalling ratio proliferation (ratio)

INSERT INTO measurements (binder, uom, reported_measurement) VALUES
  ('candidate anti-IL-6R Fab clone 12 (Fab, V domains shown) VH: EVKLMESGGGLVQPGGSLKLSCAASGFTFSNYGMSWVRQTPDKRLEWVANINSNGGSTYYPDSVKGRFTISRDNAQNTLYLQMSSLKSEDTAMYYCTRDGNFVSDYWGQGTTLTVSS VL: DIVLTQSPASLAVSPGQRATISCRASESVDSYGNSFMNWYQQKPGQPPKLLIYLASNLESGVPARFSGSGSRTDFTLTIDPVEADDAATYYCQQNNEDPYTFGGGTKLEIK', 'ratio', 1.3),
  ('candidate anti-IL-6R Fab clone 09 (Fab, V domains shown) VH: EVQLVESGGDLVQPGGSLKLSCAASGFTFSNYGMSWVRQTPDKRLELVAAINSNGGSTYYPDSVKGRFTISRDNAKNTLYLQMSSLKSEDTAMYYCARDGNYVSDYWGQGTTLTVSS VL: DIVLTQSPASLAVSLGQRATISCRASESVDSYGNSFMHWYQQKPGQPPKLLIYLASNLESGVPARFSGSGSRTDFTLTIDPVEADDAATYYCQQNNEDPWTFGGGTKLEIK', 'ratio', 1.3),
  ('candidate anti-IL-6R Fab clone 19 (Fab, V domains shown) VH: EVKLMESGGGLVQPGGSLKLSCAASGFTFSNYGMSWVRQTPDKRLELVAIMNSKGGSTYYPDSVMGRFTISRDNAKNTLYLQMSSLKSEDTAMYYCARDGYYTMDYWGQGTSVTVSS VL: DIVLTQSPASLAVSLGQRATISCRASKSVDSFGNSFMHWYQQKPGQSPRLLIFLASNLESGVPARFSGSGSRTDFTLTIDPVEADDAATYYCQQNNEDPYTFGGGTKLEIK', 'ratio', 1.4),
  ('candidate anti-IL-6R Fab clone 07 (Fab, V domains shown) VH: EVKLVESGGGLVQPGGSLKLSCAASGFTFSSYAMSWVRQTADKRLELVANINSNGGSTYYPDSVKGRFTISRDNAKNTLFLQMSSLKSEDTAMYYCAREGYYTMDYWGQGTSVTVSS VL: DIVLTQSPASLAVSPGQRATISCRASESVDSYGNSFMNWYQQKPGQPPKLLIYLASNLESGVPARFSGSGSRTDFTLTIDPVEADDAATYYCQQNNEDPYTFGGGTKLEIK', 'ratio', 1.5),
  ('candidate anti-IL-6R Fab clone 20 (Fab, V domains shown) VH: EVKLMESGGGLVQPGGSLKLSCAASGFTFSNYGMSWVRQTPDKRLELVAIINSNGGSTYYPDSVKGRFTISRDNAKNTLYLQMSSLKSEDTAIYYCARDGNFVSDYWGQGTTLTVSS VL: DIVLTQSPASLAVSLGQRATISCRASESVDSYGNRFLNWYQQKPGQPPKLLIYLASNLESGVPARFSGSGSRTDFTLTIDPVEADDAATYYCQQNNEDPYTFGGGTKLEIK', 'ratio', 2.2);
